Numbers sourced from patent US20260092071A1.

target: SMARCA4 (Homo sapiens); test: HiBiT assay for protein degradation, Hela SMARCA4-HiBiT cells (A series); format: cell-based; parameters: fuse HiBiT to the carboxy terminus of SMARCA2 (Promega CS302365) or SMARCA4 (Promega CS3023225); host or cells: HeLa (CRISPR/Cas9 HiBiT knock-in); details: Hela SMARCA4-HiBiT cells, 24 hours treatment; read-out: SMARC A4 Hela HiBit Dmax
Sequence (P51532 whole entry): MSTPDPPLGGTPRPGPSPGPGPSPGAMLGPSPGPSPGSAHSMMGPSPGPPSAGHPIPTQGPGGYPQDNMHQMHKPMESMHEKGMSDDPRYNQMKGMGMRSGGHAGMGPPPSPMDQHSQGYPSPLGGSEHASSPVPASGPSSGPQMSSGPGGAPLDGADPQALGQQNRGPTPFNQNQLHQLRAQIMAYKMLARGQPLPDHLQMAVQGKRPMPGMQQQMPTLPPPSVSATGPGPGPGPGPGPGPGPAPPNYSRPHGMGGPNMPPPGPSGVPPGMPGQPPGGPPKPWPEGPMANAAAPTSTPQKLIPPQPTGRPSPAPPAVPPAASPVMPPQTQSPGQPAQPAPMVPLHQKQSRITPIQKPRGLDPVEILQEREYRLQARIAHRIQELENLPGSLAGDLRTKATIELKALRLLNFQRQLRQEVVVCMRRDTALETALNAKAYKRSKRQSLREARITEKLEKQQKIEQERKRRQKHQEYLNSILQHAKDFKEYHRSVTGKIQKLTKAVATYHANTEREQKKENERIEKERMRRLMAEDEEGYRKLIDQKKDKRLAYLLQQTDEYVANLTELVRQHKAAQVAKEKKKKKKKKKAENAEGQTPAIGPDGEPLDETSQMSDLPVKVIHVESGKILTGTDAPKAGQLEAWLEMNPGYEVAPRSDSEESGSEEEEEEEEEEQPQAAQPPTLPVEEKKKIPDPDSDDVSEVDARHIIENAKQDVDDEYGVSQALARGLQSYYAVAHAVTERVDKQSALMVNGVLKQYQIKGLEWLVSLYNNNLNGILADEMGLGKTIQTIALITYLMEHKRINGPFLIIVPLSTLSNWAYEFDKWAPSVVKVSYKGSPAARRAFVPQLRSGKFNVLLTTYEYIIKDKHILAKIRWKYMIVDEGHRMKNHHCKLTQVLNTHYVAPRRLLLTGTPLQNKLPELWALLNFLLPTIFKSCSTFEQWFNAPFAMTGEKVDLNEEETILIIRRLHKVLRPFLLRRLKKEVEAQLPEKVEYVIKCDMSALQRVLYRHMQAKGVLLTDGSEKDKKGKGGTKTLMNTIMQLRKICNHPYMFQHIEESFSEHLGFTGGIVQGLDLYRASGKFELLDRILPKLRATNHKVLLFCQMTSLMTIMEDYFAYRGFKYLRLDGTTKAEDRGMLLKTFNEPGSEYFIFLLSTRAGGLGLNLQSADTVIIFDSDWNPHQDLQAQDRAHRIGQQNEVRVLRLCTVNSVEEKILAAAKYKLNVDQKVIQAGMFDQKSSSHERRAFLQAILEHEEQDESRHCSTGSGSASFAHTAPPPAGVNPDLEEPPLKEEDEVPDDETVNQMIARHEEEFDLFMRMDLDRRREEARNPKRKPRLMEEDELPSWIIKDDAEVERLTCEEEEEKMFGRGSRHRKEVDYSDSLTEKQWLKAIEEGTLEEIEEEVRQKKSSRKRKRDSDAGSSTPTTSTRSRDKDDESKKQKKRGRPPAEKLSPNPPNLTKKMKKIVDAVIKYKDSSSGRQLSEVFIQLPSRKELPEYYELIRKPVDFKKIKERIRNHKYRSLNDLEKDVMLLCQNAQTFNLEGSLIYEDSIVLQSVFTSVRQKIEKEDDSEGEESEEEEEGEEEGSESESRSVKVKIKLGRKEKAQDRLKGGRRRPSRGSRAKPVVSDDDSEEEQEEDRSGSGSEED
quantity-name: Dmax

Dmax on SMARCA4 (Homo sapiens) for Cc1ncccc1-c1ccc([C@H](CN2CCOCC2)NC(=O)[C@@H]2C[C@@H](O)CN2C(=O)[C@@H](n2cc([C@H]3CC[C@H](CN4CCC(c5ccc6c(c5)-n5c(nc(=O)c7c(Cl)cccc75)C65CCCCC5)CC4)CC3)nn2)C(C)(C)C)cc1 [Compound A174] is < 50%

Dmax on SMARCA4 (Homo sapiens) for COCCOCCOCCOC[C@H](NC(=O)[C@@H]1C[C@@H](O)CN1C(=O)[C@@H](n1cc([C@H]2CC[C@H](CN3CCC(c4ccc5c(c4)-n4c(nc(=O)c6c(Cl)cccc64)C54CCCCC4)CC3)CC2)nn1)C(C)(C)C)c1ccc(-c2scnc2C)cc1 [Compound A148] is 50 to 69%

Dmax on SMARCA4 (Homo sapiens) for Cc1ncsc1-c1ccc([C@H](CN2CCOCC2)NC(=O)[C@@H]2C[C@@H](O)CN2C(=O)[C@@H](n2cc([C@H]3CC[C@H](CN4CCC(c5ccc6c(c5)-n5c(nc(=O)c7c(Br)cccc75)C65CCCCC5)CC4)CC3)nn2)C(C)(C)O)cc1 [Compound A160] is 50 to 69%

Dmax on SMARCA4 (Homo sapiens) for CC(C)(C)[C@@H](C(=O)N1C[C@H](O)C[C@H]1C(=O)N[C@@H](CN1CCOCC1)c1ccc(-c2cccnc2)cc1)n1cc([C@H]2CC[C@H](CN3CCC(c4ccc5c(c4)-n4c(nc(=O)c6c(Cl)cccc64)C54CCCCC4)CC3)CC2)nn1 [Compound A171] is 50 to 69%

----------
Biological target: SMARCA2 (Homo sapiens, UniProt P51531)
Sequence (P51531 whole entry): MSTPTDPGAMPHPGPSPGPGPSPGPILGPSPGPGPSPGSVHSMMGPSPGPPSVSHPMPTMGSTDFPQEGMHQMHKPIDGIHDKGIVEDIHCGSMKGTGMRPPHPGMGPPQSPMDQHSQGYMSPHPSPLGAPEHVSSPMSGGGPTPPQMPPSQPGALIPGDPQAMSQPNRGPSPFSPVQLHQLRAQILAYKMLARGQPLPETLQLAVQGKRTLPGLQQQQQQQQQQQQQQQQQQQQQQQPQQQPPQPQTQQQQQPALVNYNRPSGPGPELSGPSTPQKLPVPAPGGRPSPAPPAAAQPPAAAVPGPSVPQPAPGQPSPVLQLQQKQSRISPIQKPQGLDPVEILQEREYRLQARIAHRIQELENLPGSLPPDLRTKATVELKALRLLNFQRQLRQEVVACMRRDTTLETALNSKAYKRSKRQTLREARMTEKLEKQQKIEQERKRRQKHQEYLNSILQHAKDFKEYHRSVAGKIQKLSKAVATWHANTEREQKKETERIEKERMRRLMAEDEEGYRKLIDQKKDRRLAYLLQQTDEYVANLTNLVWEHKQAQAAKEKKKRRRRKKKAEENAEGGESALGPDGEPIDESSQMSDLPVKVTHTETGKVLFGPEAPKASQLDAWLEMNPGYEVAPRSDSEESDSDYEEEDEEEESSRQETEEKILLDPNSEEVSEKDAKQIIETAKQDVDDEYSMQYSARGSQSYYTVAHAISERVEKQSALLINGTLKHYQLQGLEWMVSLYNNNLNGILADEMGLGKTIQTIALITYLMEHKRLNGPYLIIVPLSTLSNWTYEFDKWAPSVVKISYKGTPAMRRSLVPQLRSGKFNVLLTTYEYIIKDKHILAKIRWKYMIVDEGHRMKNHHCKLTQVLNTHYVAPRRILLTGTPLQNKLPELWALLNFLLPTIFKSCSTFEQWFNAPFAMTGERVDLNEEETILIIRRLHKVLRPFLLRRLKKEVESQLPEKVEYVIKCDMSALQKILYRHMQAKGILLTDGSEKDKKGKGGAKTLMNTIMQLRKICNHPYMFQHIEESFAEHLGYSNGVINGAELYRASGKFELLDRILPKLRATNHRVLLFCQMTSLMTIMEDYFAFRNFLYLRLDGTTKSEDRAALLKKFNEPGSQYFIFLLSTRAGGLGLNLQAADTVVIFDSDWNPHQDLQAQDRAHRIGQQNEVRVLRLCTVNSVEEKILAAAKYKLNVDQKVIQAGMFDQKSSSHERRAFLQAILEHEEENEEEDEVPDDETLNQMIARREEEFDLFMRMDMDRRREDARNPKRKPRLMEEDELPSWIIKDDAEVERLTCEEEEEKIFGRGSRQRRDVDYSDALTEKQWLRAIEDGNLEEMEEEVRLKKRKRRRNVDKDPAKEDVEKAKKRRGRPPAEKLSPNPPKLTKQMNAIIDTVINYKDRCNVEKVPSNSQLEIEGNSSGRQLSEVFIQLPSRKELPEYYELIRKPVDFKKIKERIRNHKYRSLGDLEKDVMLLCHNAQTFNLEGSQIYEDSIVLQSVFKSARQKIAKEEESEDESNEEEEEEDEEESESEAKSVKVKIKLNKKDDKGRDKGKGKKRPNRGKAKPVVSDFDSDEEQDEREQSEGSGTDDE
Assay: HiBit assay in engineered HT1080 CRISPR knock-in cell, 6 hrs (B series), SMARCA2
Type: cell-based
Settings: HT-1080, HT1080 CRISPR knock-in cells, 6 hrs incubation; read-out: SMARC A2 HT1080 HiBit Dmax (%)
Description: The HiBit assay was performed using engineered HT1080 CRISPR knock-in cell utilizing the Nano-Glo HiBiT Lytic Detection System from Promega, Cat #N3040. Compounds were transferred, 25 nL DMSO or test compounds (final DMSO @ 0.1%) to intermediate plates (Corning3570) using ECHO550. […] After briefly centrifugation (2000 rpm 1 mins), plate was read on Envision (Ultrasensitive luminescence model).
quantity-name: Dmax

C[C@H](NC(=O)[C@@H]1C[C@@H](O)CN1C(=O)[C@@H](NC(=O)[C@H]1CC[C@H](CN2CCC(c3ccc4c(c3)C(C)(C)c3nc(=O)c5c(Cl)cccc5n3-4)CC2)CC1)C(C)(C)C)c1ccc(-c2ncnn2C)cc1; < 50%

Dmax in this record for Cc1ncsc1-c1ccc([C@H](C)NC(=O)[C@@H]2C[C@@H](O)CN2C(=O)[C@@H](n2cc(C3CC4(C3)CC(N3CCC(c5ccc6c(c5)-n5c(nc(=O)c7c(Cl)cccc75)C6(C)C)CC3)C4)nn2)C(C)(C)C)cc1 (some centres unmarked) : > 90%
